# assay-remarks: AUC (0-t) in rat at 1 mg/kg, iv
# Type: ADME, organism-based
# Set-up: dose 1 mg/kg, route intravenous
# recorded-conditions: plasma
readout-type: AUC(0-t) (ng·h/mL)
Numbers only, in ng·h/mL.

Any idea what AUC(0-t) was measured for CCCn1c2ccc(NC(=O)OC(C)C)cc2c2c3c(c4c(c21)CCc1nn(C)cc1-4)C(=O)NC3 ?
1420

---

# assay-remarks: AUC (0-infinity) in rat at 5 mg/kg, po
# Assay type: ADME, organism-based
# Design: time infinity, dose 5 mg/kg, route oral
# recorded-conditions: plasma
readout-type: AUC(0-inf) (ng·h/mL)
Numbers only, in ng·h/mL.

Any idea what AUC(0-inf) was measured for CCCn1c2ccc(NC(=O)OC(C)C)cc2c2c3c(c4c(c21)CCc1nn(C)cc1-4)C(=O)NC3 ?
3770
